- tested-system: Cin5 (UniProt P40917)
- Sequence: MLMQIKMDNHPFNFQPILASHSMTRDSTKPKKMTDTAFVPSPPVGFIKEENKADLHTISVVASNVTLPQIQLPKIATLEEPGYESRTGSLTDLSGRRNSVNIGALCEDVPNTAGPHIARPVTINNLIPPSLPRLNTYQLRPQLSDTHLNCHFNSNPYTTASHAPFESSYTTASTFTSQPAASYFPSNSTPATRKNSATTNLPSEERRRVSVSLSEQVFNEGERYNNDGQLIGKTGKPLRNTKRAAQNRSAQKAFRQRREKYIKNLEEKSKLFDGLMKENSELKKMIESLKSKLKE
- experimental-details: PBM E-score (8-mer binding enrichment) (E-score (-0.5 to 0.5)); higher = stronger / more preferred TF binding
- test-context: protein concentration: 100 nM; construct: GST-full length
Over roughly 33,000 sequences, “E-score (-0.5 to 0.5)” has its median near -0.0059; the highest 2% begin near 0.26. The sample holds the highest values, similar sequences and a random draw of the others, so the mix is not that of the screen.
observed-property: PBM E-score

[
  {
    "sequence-code": "AATACAAG",
    "observed-value": 0.294
  },
  {
    "sequence-code": "ATTATTGA",
    "observed-value": 0.111
  },
  {
    "sequence-code": "GACCACTA",
    "observed-value": 0.171
  },
  {
    "sequence-code": "GGCGCGGA",
    "observed-value": -0.189
  },
  {
    "sequence-code": "CGGGAACG",
    "observed-value": -0.00694
  },
  {
    "sequence-code": "GACTGAAA",
    "observed-value": -0.0204
  },
  {
    "sequence-code": "TATATAAA",
    "observed-value": 0.283
  },
  {
    "sequence-code": "GATATAAA",
    "observed-value": 0.0539
  },
  {
    "sequence-code": "CATATAAA",
    "observed-value": 0.138
  },
  {
    "sequence-code": "AATACAAC",
    "observed-value": 0.236
  },
  {
    "sequence-code": "GATATATA",
    "observed-value": 0.266
  },
  {
    "sequence-code": "TTTATAAA",
    "observed-value": 0.259
  },
  {
    "sequence-code": "GTGGGAAC",
    "observed-value": -0.144
  },
  {
    "sequence-code": "GCACCACA",
    "observed-value": -0.122
  },
  {
    "sequence-code": "AGTTCGGC",
    "observed-value": -0.0604
  },
  {
    "sequence-code": "GACATACA",
    "observed-value": 0.314
  },
  {
    "sequence-code": "GATATATC",
    "observed-value": 0.1
  },
  {
    "sequence-code": "ATCGTGTC",
    "observed-value": 0.0401
  },
  {
    "sequence-code": "GATATACA",
    "observed-value": 0.138
  },
  {
    "sequence-code": "GCTACATA",
    "observed-value": 0.0756
  },
  {
    "sequence-code": "CTTATAAA",
    "observed-value": 0.154
  },
  {
    "sequence-code": "TATACAAA",
    "observed-value": 0.169
  }
]

---

- tested-system: Cin5 (UniProt P40917)
- Sequence: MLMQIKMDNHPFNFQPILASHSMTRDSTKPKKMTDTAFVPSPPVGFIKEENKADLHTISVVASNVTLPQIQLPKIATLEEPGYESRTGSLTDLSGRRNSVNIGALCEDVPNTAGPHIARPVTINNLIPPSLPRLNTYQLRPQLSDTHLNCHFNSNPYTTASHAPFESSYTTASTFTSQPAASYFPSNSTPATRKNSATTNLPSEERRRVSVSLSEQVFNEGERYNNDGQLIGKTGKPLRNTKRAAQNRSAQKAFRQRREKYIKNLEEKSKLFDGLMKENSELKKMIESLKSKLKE
- experimental-details: PBM E-score (8-mer binding enrichment) (E-score (-0.5 to 0.5)); higher = stronger / more preferred TF binding
- test-context: protein concentration: 100 nM; construct: GST-full length
The full ranking holds about 33,000 sequences; the median of “E-score (-0.5 to 0.5)” is about -0.0059, and the highest 2% start at about 0.26. The sample holds the highest values, similar sequences and a random draw of the others, so the mix is not that of the screen.
Note to self: values exactly at 0.1 are Satisfied. So PBM E-score at or above 0.1 is Satisfied, below is Not satisfied.

[
  {
    "sequence-code": "AATTGGGT",
    "classification": "Satisfied"
  },
  {
    "sequence-code": "CGCAACTA",
    "classification": "Satisfied"
  },
  {
    "sequence-code": "AAATCCAT",
    "classification": "Satisfied"
  },
  {
    "sequence-code": "CAAGAACA",
    "classification": "Not satisfied"
  },
  {
    "sequence-code": "CAATCAAA",
    "classification": "Satisfied"
  },
  {
    "sequence-code": "GTTGTTAA",
    "classification": "Satisfied"
  },
  {
    "sequence-code": "TTATCAAA",
    "classification": "Satisfied"
  },
  {
    "sequence-code": "CGGAACAA",
    "classification": "Satisfied"
  },
  {
    "sequence-code": "GGAAGTCA",
    "classification": "Not satisfied"
  },
  {
    "sequence-code": "GTATCCAC",
    "classification": "Not satisfied"
  },
  {
    "sequence-code": "CGGAACGA",
    "classification": "Satisfied"
  },
  {
    "sequence-code": "AAGAACAA",
    "classification": "Satisfied"
  },
  {
    "sequence-code": "CTCACATA",
    "classification": "Satisfied"
  },
  {
    "sequence-code": "AAGCACTC",
    "classification": "Not satisfied"
  },
  {
    "sequence-code": "CTATCTCA",
    "classification": "Not satisfied"
  },
  {
    "sequence-code": "GAGAACAC",
    "classification": "Not satisfied"
  },
  {
    "sequence-code": "CGGAACAC",
    "classification": "Satisfied"
  },
  {
    "sequence-code": "TCGTGGAA",
    "classification": "Satisfied"
  },
  {
    "sequence-code": "ATCACGTA",
    "classification": "Satisfied"
  },
  {
    "sequence-code": "TAATCCAA",
    "classification": "Satisfied"
  },
  {
    "sequence-code": "AACACTTA",
    "classification": "Satisfied"
  },
  {
    "sequence-code": "GAAGAACA",
    "classification": "Satisfied"
  },
  {
    "sequence-code": "GTACCGGA",
    "classification": "Not satisfied"
  },
  {
    "sequence-code": "AAATCCAG",
    "classification": "Satisfied"
  },
  {
    "sequence-code": "GACCAGTC",
    "classification": "Not satisfied"
  },
  {
    "sequence-code": "ATCACATG",
    "classification": "Not satisfied"
  },
  {
    "sequence-code": "CCTTCATC",
    "classification": "Not satisfied"
  },
  {
    "sequence-code": "ACACGCCT",
    "classification": "Not satisfied"
  },
  {
    "sequence-code": "TAAGAACA",
    "classification": "Satisfied"
  },
  {
    "sequence-code": "AAATCCAC",
    "classification": "Not satisfied"
  },
  {
    "sequence-code": "AACACTGT",
    "classification": "Not satisfied"
  },
  {
    "sequence-code": "GCGTGGAA",
    "classification": "Satisfied"
  },
  {
    "sequence-code": "CGGGTGTA",
    "classification": "Not satisfied"
  },
  {
    "sequence-code": "CTTGTTAA",
    "classification": "Not satisfied"
  },
  {
    "sequence-code": "CGGAACGC",
    "classification": "Not satisfied"
  },
  {
    "sequence-code": "ATCACGTG",
    "classification": "Satisfied"
  },
  {
    "sequence-code": "ATTGTTAG",
    "classification": "Satisfied"
  },
  {
    "sequence-code": "GAATCAAA",
    "classification": "Satisfied"
  },
  {
    "sequence-code": "CACCCCCC",
    "classification": "Not satisfied"
  },
  {
    "sequence-code": "CCGCATGA",
    "classification": "Not satisfied"
  },
  {
    "sequence-code": "AATTACCA",
    "classification": "Satisfied"
  },
  {
    "sequence-code": "AATTACGA",
    "classification": "Satisfied"
  },
  {
    "sequence-code": "AGGAACGA",
    "classification": "Not satisfied"
  },
  {
    "sequence-code": "ATTGTTTG",
    "classification": "Satisfied"
  },
  {
    "sequence-code": "CATAGCCC",
    "classification": "Not satisfied"
  }
]
